As shown below, each of these molecules has a reported IC50 value.
- System: A549
- PROTOCOL: Cytotoxicity against human A549 cell after 72 hrs by SRB assay
- Format: functional, cell-based
- TEST_SETTINGS: A549, 72 h
# value in µM; strip the unit string

>>> result_value("O=C(CCC(=O)N1CCCC1)Nc1ccc(NC(=O)c2cccc3c(=O)c4cccc(C(=O)Nc5ccc(NC(=O)CCC(=O)N6CCCC6)cc5)c4[nH]c23)cc1")
27

Q: What IC50 value was documented for this molecule, CN(C)CCC(=O)Nc1ccc(NC(=O)c2cccc3c(=O)c4cccc(C(=O)Nc5ccc(NC(=O)CCN(C)C)cc5)c4[nH]c23)cc1 ?
Ans: 15

Q: Same lookup for O=C(CCNC1CCCCC1)Nc1ccc(NC(=O)c2cccc3c(=O)c4cccc(C(=O)Nc5ccc(NC(=O)CCNC6CCCCC6)cc5)c4[nH]c23)cc1 , please.
Ans: 31

* * *

- Tested on: Nucleic Acid
- PROTOCOL: Binding affinity to human telomeric G4 DNA of sequence 5'-FAM-d(GGG[TTAGGG]3)-TAMRA-3' assessed as change in melting temperature by FRET DNA melting assay; further: test concentration or dose not given here
- Type: nucleic-acid assay
PROPERTY_NAME: ΔTm

Examples from the recorded data:
>>> result_value("O=C(CCn1ccnc1)Nc1ccc(NC(=O)c2cccc3c(=O)c4cccc(C(=O)Nc5ccc(NC(=O)CCn6ccnc6)cc5)c4[nH]c23)cc1")
"15 °C"
>>> result_value("O=C(CCCCN1CCCC1)Nc1ccc(NC(=O)c2cccc3c(=O)c4cccc(C(=O)Nc5ccc(NC(=O)CCCCN6CCCC6)cc5)c4[nH]c23)cc1")
"22.5 °C"
>>> result_value("O=C(CCNC1CCCCC1)Nc1ccc(NC(=O)c2cccc3c(=O)c4cccc(C(=O)Nc5ccc(NC(=O)CCNC6CCCCC6)cc5)c4[nH]c23)cc1")
"24.5 °C"

# input for lookup
Q: Report ΔTm for O=C(CN1CCCC1)Nc1ccc(NC(=O)c2cccc3c(=O)c4cccc(C(=O)Nc5ccc(NC(=O)CN6CCCC6)cc5)c4[nH]c23)cc1 tested on Nucleic Acid.
Ans: 25.5 °C
